test system: HT29 colon; experiment: NCI-60 one-dose screen, 48 h; details: 10 µM unless noted
About 83,000 compounds went through this panel and 20% of them were active in at least one assay; those are over-represented in the sample as a whole. Active and inactive are the calls of the source. How the source made its calls: active means growth percent below 10; inactive means the rest.
Would you mind answering with one of these outcomes? active, inactive

Look up the recorded call for Cc1ccnc(NC(c2ccccc2)c2ccc3cccnc3c2O)c1 (stereo not drawn) in this test. inactive

Tell me the assay call for `CNC(=O)N/N=C/c1ccc([N+](=O)[O-])o1` please. inactive

Hi, do you know how `N#CSCc1ccc(Cl)c(CSC#N)c1` came out in this test? active

###

Tested on: 786-0 renal
Experiment: NCI-60 one-dose screen, 48 h
Conditions: 10 µM unless noted
Description: Cells are grown in 96 well plates and exposed to the test compound for 48 hours. Compounds are tested at a single concentration, which is 10^-5 M for most compounds. The reported endpoint is percent growth (GI% or GIPRCNT), where numbers from 0 - 100% represent growth inhibition, and numbers from -100% - 0 represent cell death. For example, a value of 40 represents 60% growth inhibition. A value of 0 means no net growth occurred over the course of the experiment. […]
About 83,000 compounds went through this panel and 20% of them were active in at least one assay; those are over-represented in the sample as a whole. The source made the active and inactive calls. How the source made its calls: active means growth percent below 10; inactive means the rest.
The reply should be one of these categories: active, inactive

Observe how each entry below is paired with its result.
Called result for `C[N+](C)=c1ccc2nc3c(cc(NCCCNc4cc5oc6cc(=[N+](C)C)ccc-6nc5c5ccccc45)c4ccccc43)oc-2c1` active

Please state the recorded outcome for this compound: `CC(C)(C)CC(C)(C)c1ccc(OCCSC(=N)N)cc1` inactive

Entry `Cn1c2c(c3ccccc31)CCN1C[C@@H]3CCCC[C@H]3C[C@@H]21` : call = ? active

What is the recorded call for this compound in the test? `CCC(CC)COC(=O)c1ccc(O)c(O)c1` inactive

Per the assay record, what outcome was assigned to `COc1ccc(N=N/N=c2\sc3cc(OC)ccc3n2C)cc1` ? inactive

Tell me the assay call for `COc1cc(NS(C)(=O)=O)ccc1Nc1c2ccccc2nc2ccccc12` please. active

Test call, this compound: `CCOC(=O)/C(=C\c1ccc(-c2ccccc2)cc1)C(C)=O` inactive

// outcome(item) with item = `Cn1c2ccccc2c2nnc(N/N=C/c3ccccn3)nc21` active

Continuing:
Please state the recorded outcome for this compound: `Oc1c(Br)cc(Cl)cc1C(c1cc(Cl)cc(Br)c1O)C(Cl)(Cl)Cl` inactive

Returns: the outcome recorded for O=C(CC1(O)C(=O)Nc2c(Cl)ccc(Cl)c21)c1ccc(Cl)cc1Cl (stereo not drawn) in this assay. inactive

# fetch the recorded call for `N#Cc1ccc([N+](=O)[O-])o1` here inactive

Query: recorded result category for `CC1(C)CC([P+](c2ccccc2)(c2ccccc2)c2ccccc2)=NN1` in this test inactive

// return assay outcome for `CCCCCC(CCCCC)C(=O)O` inactive

Hello, I am checking results. What call was entered for `O=C1c2ccccc2C(=O)N1c1ccccc1` ? inactive

###

system: A549/ATCC NSCLC; assay: NCI-60 one-dose screen, 48 h (100 = growth as untreated, 0 = no growth, -100 = all killed); conditions: 100 µM
The panel holds about 83,000 compounds, 20% with a hit somewhere; the sample as a whole holds those more often. The source made the active and inactive calls. Rule for the calls: active = growth percent below 10; inactive = the rest.
Each entry below carries its reported growth.

Give the reported growth for this compound. `O=C(Nc1c(Cl)cccc1Cl)Oc1cccc2cccnc12` 18.2% (inactive)

For the compound `O=C(O)c1c(Cl)c(Cl)c(Cl)c(Cl)c1-c1c2cc(I)c(=O)c(I)c-2oc2c(I)c(O)c(I)cc12` , give its reported growth. 25.2% (inactive)

Consider the compound `COc1ccc(-c2cscc2N)cc1` and give its recorded growth. 46.1% (inactive)

Further cases:
Give the measured growth for `O=C(Nc1cccc(Br)c1)Oc1cccc2cccnc12` 20.7% (inactive)

###

test system: NCI-H322M lung; experiment: NCI-60 one-dose screen, 48 h (100 = growth as untreated, 0 = no growth, -100 = all killed); details: 10 µM unless noted
About 83,000 compounds went through this panel and 20% of them were active in at least one assay; those are over-represented in the sample as a whole. Activity calls are given as the source filed them. How the source made its calls: active means growth percent below 10; inactive means the rest.
assay metric: growth

Guide cases for growth, answers given:
For `COc1ccccc1/C=C\C(=O)c1ccccc1` , write its growth. 95% (inactive)

Check the records and state growth for `CCN(CC)CCOc1ccc(-c2nc3cc(Cl)ccc3s2)cc1` 28.3% (inactive)

Annotate the compound C1=C(c2ccccc2)C(c2ccc(OCCN3CCCCC3)cc2)Oc2ccccc21 (stereo not given) with its measured growth. 77.4% (inactive)

Indicate the recorded growth value for this compound: COC(=O)[C@@]12OC[C@]34[C@H]([C@@H](O)[C@@H]1O)[C@@]1(C)[C@H](O)C(=O)C=C(C)[C@@H]1C[C@H]3OC(=O)C(OC(C)=O)[C@@H]24 (stereo not given in full) -28.9% (active)

Continuing:
Answer with the recorded growth for the compound listed here: `N#Cc1ccc([N+](=O)[O-])o1` 106% (inactive)

Please supply the value of reported growth for the item `N#CSCc1c(Cl)cccc1Cl` 97.9% (inactive)

###

system: UACC-62 melanoma; assay: NCI-60 one-dose screen, 48 h; details: 10 µM unless noted
The panel holds about 83,000 compounds, 20% with a hit somewhere; the sample as a whole holds those more often. The source made the active and inactive calls. How the source made its calls: active means growth percent below 10; inactive means the rest. Where a SMILES comes first, the peptide text is derived from it. The star is where a group is joined. Trt = c1ccc(C(c2ccccc2)(c2ccccc2)*)cc1; Cbz = O=C(OCc1ccccc1)*
Please reply with one of these outcomes: YES (active), NO (inactive)

How did this test come out for `NC1=CC(=O)c2ccccc2C1=O` ? NO

Dear colleague, could you share the recorded outcome for `O=C1N[C@H]2[C@H](CS[C@H]2CCCCC(=O)N(CCP(c2ccccc2)c2ccccc2)CCP(c2ccccc2)c2ccccc2)N1` when you have a moment? NO

---
Entry `Cn1c2ccccc2c2nnc(N/N=C/c3ccccn3)nc21` : call = ? YES

Assay result, entry `CN(C)C(=O)SC1=C(c2c(Cl)cccc2Cl)C(=O)c2ccccc21` — outcome? NO

Could you please tell me the result logged for COC(=O)C(CSC(c1ccccc1)(c1ccccc1)c1ccccc1)NC(=O)C(CC(N)=O)NC(=O)OCc1ccccc1 (stereo not drawn) (Cbz-Asn-Cys(Trt)-OMe; configuration not given here) in this assay? YES

For `Nc1nc(N)c2c(ccc3c2ccn3Cc2cccc([N+](=O)[O-])c2)n1` , which call appears in the assay record? YES

###

test system: 786-0 renal; experiment: NCI-60 one-dose screen, 48 h (100 = growth as untreated, 0 = no growth, -100 = all killed); conditions: 10 µM unless noted
Compounds without any hit were thinned out: in the full panel of roughly 83,000, 20% have a hit.
assay metric: growth (%)
A number alone suffices; assume %.

Recall the reported growth of `C[n+]1c(/C=C/c2ccc([N+](=O)[O-])cc2)ccc2ccccc21` when tested on 786-0 renal. 111

Give 786-0 renal growth for the following compound: `N#CSCc1c(Cl)cccc1Cl` 71.5

Fill: growth (786-0 renal) for this compound `CN(C)CCOc1ccc2c(c1)C(=O)/C(=C\c1ncc([N+](=O)[O-])n1C)C2` -26.4

---
Tell me growth of `Cc1ccc2c(ccc3c[n+]4c5ccccc5ccc4n32)c1` when tested on 786-0 renal. 27.4

Please report the measured growth for `O[C@H]1[C@H]2c3cc4c(cc3CN3CCC(=C[C@@H]1O)[C@H]23)OCO4` tested on 786-0 renal. 31.9

Give growth; test system 786-0 renal; compound O=C(/C=C\c1ccccc1)N1c2ccccc2CC1c1c[nH]c2ccccc12 (stereo unspecified) 77.7

###

system: UACC-62 melanoma; assay: NCI-60 one-dose screen, 48 h; conditions: 100 µM
About 83,000 compounds went through this panel and 20% of them were active in at least one assay; those are over-represented in the sample as a whole. Active and inactive are the calls of the source. How the source made its calls: active means growth percent below 10; inactive means the rest.
Use one of these outcomes when replying: 1.0 = active, 0.0 = inactive

Recorded test outcome, item `O=C(Nc1cccc(Br)c1)Oc1cccc2cccnc12` 0.0

Recorded call for `COc1ccc(-c2cscc2N)cc1` ? 1.0

Lab log entry: `O=C(Nc1c(Cl)cccc1Cl)Oc1cccc2cccnc12` — outcome as called in the assay? 1.0

State the result this test recorded for `O=C(O)c1c(Cl)c(Cl)c(Cl)c(Cl)c1-c1c2cc(I)c(=O)c(I)c-2oc2c(I)c(O)c(I)cc12` . 1.0

###

tested on: T-47D breast; assay: NCI-60 one-dose screen, 48 h (100 = growth as untreated, 0 = no growth, -100 = all killed); details: 10 µM unless noted
The panel holds about 83,000 compounds, 20% with a hit somewhere; the sample as a whole holds those more often.
Is growth at least 70%? Then met. If not, not met.

Take a look at these entries with their results.
Entry `CCC(=O)Sc1ccccc1C(=O)Nc1ccc(Cl)cc1` : is its growth no less than 70%? not met

Can `O[C@H]1[C@H]2c3cc4c(cc3CN3CCC(=C[C@@H]1O)[C@H]23)OCO4` be said to have growth at or above 70%? not met

Reported growth at or above 70%? `CN(C)c1ccc(N=Nc2cccc3ccccc23)cc1` not met

API: above_or_equal(metric=growth, cutoff=70%) for item `CCCCCC(CCCCC)C(=O)O` met

Does `Cc1ccc(C(=Nc2ccccc2)N=P(c2ccccc2)(c2ccccc2)c2ccccc2)cc1` have a reported growth of at least 70%? not met

***
Could you verify whether the entry `CNc1ccc(N)cc1` shows growth of no less than 70%? met

Please indicate if the recorded growth for `COc1cc(/C=C(/C)C[N+](=O)[O-])ccc1O` meets or exceeds 70%. not met

# check: growth of `O=C(/C=C/C=C/c1ccccc1)c1ccco1` is greater than or equal to 70% not met

Say whether `O=C1c2ccccc2C(=O)N1c1ccccc1` shows growth of 70% or more. met

Identify whether the reported growth of the following compound is 70% or greater: `CC(=Nc1ccc(N(C)C)cc1)c1ccccc1` not met

Does the compound `CCN1/C(=C\c2cc[n+](CC)c3ccccc23)C=Cc2ccccc21` have recorded growth that is 70% or more? not met

Does CN(C)c1ccc(C(=C2C=CC(=[N+](C)C)C=C2)c2ccc(N(C)C)cc2)cc1 (tested in a mixture with another compound) have a reported growth of at least 70%? not met
